biological target: Xanthine dehydrogenase/oxidase (Bos taurus, UniProt P80457); test: Inhibition of bovine xanthine oxidase
Sequence (P80457 whole entry): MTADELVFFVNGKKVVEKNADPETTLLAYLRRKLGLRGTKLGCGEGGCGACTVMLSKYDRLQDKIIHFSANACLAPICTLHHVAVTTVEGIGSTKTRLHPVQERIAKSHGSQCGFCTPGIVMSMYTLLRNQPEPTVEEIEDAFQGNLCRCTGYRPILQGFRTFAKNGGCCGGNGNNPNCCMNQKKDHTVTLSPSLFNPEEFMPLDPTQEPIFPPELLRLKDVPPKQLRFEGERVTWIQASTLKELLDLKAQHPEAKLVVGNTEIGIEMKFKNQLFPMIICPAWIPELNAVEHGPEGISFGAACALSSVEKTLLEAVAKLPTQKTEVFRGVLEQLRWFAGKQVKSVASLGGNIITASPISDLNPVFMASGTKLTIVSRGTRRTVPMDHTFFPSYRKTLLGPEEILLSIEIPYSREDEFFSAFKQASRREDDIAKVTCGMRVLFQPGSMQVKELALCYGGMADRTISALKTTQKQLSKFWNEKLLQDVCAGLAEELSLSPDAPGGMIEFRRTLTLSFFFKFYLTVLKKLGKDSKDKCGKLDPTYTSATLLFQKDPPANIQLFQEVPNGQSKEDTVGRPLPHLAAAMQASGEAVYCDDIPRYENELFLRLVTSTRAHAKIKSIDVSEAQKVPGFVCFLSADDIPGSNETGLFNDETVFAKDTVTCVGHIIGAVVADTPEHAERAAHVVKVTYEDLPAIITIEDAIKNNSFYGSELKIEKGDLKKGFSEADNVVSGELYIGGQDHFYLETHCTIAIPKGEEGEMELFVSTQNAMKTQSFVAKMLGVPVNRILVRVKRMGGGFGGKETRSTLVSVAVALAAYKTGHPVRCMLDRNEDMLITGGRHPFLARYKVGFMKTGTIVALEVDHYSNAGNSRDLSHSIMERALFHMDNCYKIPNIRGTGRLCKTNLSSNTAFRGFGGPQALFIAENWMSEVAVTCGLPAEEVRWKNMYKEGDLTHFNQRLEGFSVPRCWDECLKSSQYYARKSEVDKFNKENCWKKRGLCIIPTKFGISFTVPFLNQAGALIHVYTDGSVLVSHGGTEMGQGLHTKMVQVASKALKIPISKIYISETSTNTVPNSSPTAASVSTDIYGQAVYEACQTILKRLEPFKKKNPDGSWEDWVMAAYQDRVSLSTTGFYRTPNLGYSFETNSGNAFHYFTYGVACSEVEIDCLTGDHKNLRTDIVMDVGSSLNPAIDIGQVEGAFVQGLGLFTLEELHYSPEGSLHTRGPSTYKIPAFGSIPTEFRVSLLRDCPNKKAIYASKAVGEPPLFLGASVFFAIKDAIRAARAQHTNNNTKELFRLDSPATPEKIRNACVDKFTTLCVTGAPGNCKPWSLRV
recorded.endpoint: IC50
The answer should read as a number with its unit following.

What does the data say about its IC50? Entry: "c1ccc(-c2nn3c(-c4cnccn4)nnc3s2)cc1"
79.4 nM

###

biological target: Xanthine dehydrogenase/oxidase (Bos taurus, UniProt P80457); assay: Competitive inhibition of bovine xanthine oxidase
recorded.endpoint: pIC50
FYI, pIC50 means -log10 of a concentration in mol per litre.

Please look up its pIC50: "O=c1[nH]ccc2nc(-c3cccc(C(F)(F)F)c3)cn12"
6.40

###

test: Solubility of the compound in phosphate buffer at pH 7.4
recorded.endpoint: solubility
Answer with the figure and its unit, nothing else.

Here is how some compounds turned out for solubility.
smiles.data: Nc1nc(-c2ccc(OCCCCO)cc2)cc(=O)[nH]1
solubility: 95 µM
--
smiles.data: CC(C)(C)COc1ccc(-c2nc(N)[nH]c(=O)c2C#N)cc1OC(F)(F)F
solubility: 6 µM
--
smiles.data: N#Cc1cc(-c2nc(N)[nH]c(=O)c2Cl)ccc1OCCCCO
solubility: 93 µM

Please look up its solubility: "N#Cc1cc(-c2cc(=O)[nH]c(N)n2)cc(C(F)(F)F)c1"
430 µM

###

assay: Half life in Han Wistar rat at 1 umol/kg, iv; assay type: ADME, organism-based; conditions: in vivo
recorded.endpoint: half-life (h)
Kindly answer with a numeric value in h, unit omitted.

compound: CC(C)COc1ccc(-c2nc(N)[nH]c(=O)c2C#N)cc1C#N
half-life, h: 19
//
compound: Nc1nc(-c2ccc(OCC3CCOC3)c(OC(F)(F)F)c2)c(Cl)c(=O)[nH]1 (stereo not drawn)
half-life, h: 13.2

# input compound: Nc1nc(-c2ccc(OCC3CCOC3)c(C(F)(F)F)c2)c(Cl)c(=O)[nH]1 (stereo not drawn) ; wanted: its half-life
10

###

assay: Solubility of the compound in phosphate buffer at pH 7.4
recorded.endpoint: solubility (µM)
Just the number please, in µM, no unit attached.

molecule: Nc1nc(-c2ccc(OCC3CCOC3)c(C(F)(F)F)c2)c(Cl)c(=O)[nH]1 (stereo unspecified)
solubility, µM: 24

We next turn to a different molecule, shown below.
For the molecule shown here, "CC(C)COc1ccc(-c2cc(=O)[nH]c(N)n2)cc1C#N" , give the reported solubility.
140

###

assay: Intrinsic clearance in human liver microsomes; format: ADME; conditions: read-out: CLH
The reader will find reported microsomal CLint values listed item by item below.
// return numeric value only (unit: µL/min/mg, not printed)

compound: CC(C)(C)COc1ccc(-c2cc(=O)[nH]c(N)n2)cc1
result.unit: µL/min/mg
microsomal CLint: 6.9
--
compound: Nc1nc(-c2ccc(OCCCCO)cc2)cc(=O)[nH]1
result.unit: µL/min/mg
microsomal CLint: 6.8
--
compound: N#Cc1cc(-c2nc(N)[nH]c(=O)c2Cl)ccc1OCCCCO
result.unit: µL/min/mg
microsomal CLint: 1.7
--
compound: Cc1cc(C#N)cc(-c2cc(=O)[nH]c(N)n2)c1
result.unit: µL/min/mg
microsomal CLint: 1.2
--
compound: Nc1nc(-c2ccc(OCC3CCOC3)c(C(F)(F)F)c2)c(Cl)c(=O)[nH]1 (stereo not given)
result.unit: µL/min/mg
microsomal CLint: 7.5
--
compound: N#Cc1cc(-c2nc(N)[nH]c(=O)c2Cl)ccc1OCC1CCOC1 (stereo not given)
result.unit: µL/min/mg
microsomal CLint: 3.4

Look at this compound and give its reported microsomal CLint. Nc1nc(-c2ccc(OCC3CCOC3)c(OC(F)(F)F)c2)c(Cl)c(=O)[nH]1 (stereo not given)
18

Report microsomal CLint for "CC(C)COc1ccc(-c2nc(N)[nH]c(=O)c2C#N)cc1C#N" please.
4.1

Quick one: microsomal CLint for "Nc1nc(-c2cccc(OC(F)(F)F)c2)cc(=O)[nH]1" ?
3.2

Entry under review: "N#Cc1cc(-c2nc(N)[nH]c(=O)c2C#N)ccc1OCC1CC1" . Reported microsomal CLint?
1.7
